Tested on: U251 CNS
Test: NCI tumour cell line growth inhibition, 48 h; in the data active = GI50 below about 0.43 µM; inactive = the rest
Your reply should match one of these outcome classes. True for active, False for inactive

Known results for molecules:
{"MOLECULE": "O=C1c2cccnc2C(=O)c2nc3cc(N4CCN(C5CC5)CC4)ccc3nc21", "CATEGORY LABEL": "True"}
{"MOLECULE": "COc1ccc(-c2c3c(N)nc(-c4ccncc4)nc3nc3c2c(C)nn3-c2ccccc2)cc1", "CATEGORY LABEL": "False"}
{"MOLECULE": "CN(C)CC(=O)Nc1ccc(Cn2nnc3c2C(=O)c2nnn(Cc4ccc(NC(=O)CN(C)C)cc4)c2C3=O)cc1", "CATEGORY LABEL": "True"}
{"MOLECULE": "COc1cc(C2CC(c3ccc4c(c3)OCO4)=NN2C=O)cc(OC)c1OC (stereo not given)", "CATEGORY LABEL": "False"}

So what was the verdict on `O=C1/C(=C\c2c[nH]c3ccccc23)c2ccccc2N1c1c(Cl)cccc1Cl` in this test? False

Per the assay record, what outcome was assigned to `COC(=O)[C@H](C[C@H](Cc1ccccc1)NC(=O)c1csc([C@@H](C[C@H](C(C)C)N(C)C(=O)[C@@H](NC(=O)[C@H]2CCCCN2C)C(C)C)OC(C)=O)n1)NC(=O)OCc1ccccc1` ? True
